Exercise: state measured EC50 for each of the binders provided.
subject.of.test: T1, recombinant Aβ1-42 fibrils (human)
T1 construct: Fibrils made from HFIP-treated Aβ1-42 (DMSO, 10 mM HCl, 37 C, 24 h; pellet resuspended and sonicated); also called fibril Aβ42; fibril Aβ
test.method.notes: direct ELISA on plate-coated Aβ fibrils, antibody titrated
One number for each entry, in µg/mL.

Examples from the recorded data:
binder: h2831 (antibody, V domains shown, Humanized IgG; only variable domains tied to the name; also called PB-0575) VH: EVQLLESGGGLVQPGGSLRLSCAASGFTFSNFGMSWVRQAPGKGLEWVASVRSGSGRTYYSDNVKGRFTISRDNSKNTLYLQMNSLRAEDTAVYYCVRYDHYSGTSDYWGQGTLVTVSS VL: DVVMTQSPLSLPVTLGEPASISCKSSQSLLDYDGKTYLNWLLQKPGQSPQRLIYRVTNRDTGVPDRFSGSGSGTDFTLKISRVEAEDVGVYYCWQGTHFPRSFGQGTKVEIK
EC50 / µg/mL: 0.0489

binder: h2931 (antibody, V domains shown, Humanized IgG; only variable domains tied to the name; also called PB-0576) VH: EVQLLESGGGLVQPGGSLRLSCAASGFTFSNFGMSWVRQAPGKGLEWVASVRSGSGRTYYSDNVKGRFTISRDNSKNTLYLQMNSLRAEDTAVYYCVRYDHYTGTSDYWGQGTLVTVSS VL: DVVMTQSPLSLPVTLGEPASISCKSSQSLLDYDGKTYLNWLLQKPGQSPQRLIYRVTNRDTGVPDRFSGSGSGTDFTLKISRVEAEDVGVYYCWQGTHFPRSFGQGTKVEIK
EC50 / µg/mL: 0.0449

binder: h2726 (antibody, V domains shown, Humanized IgG; also called PB-0573) VH: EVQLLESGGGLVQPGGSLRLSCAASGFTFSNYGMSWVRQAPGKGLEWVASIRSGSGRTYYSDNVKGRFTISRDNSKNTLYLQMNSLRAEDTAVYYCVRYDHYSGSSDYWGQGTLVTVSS VL: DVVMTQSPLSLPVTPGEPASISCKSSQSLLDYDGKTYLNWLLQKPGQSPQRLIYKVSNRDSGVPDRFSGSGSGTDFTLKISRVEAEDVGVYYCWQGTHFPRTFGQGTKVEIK
EC50 / µg/mL: 0.0359

binder h2731 (antibody, human IgG1, kappa, V domains shown, Heavy chain with or without the C-terminal lysine) VH: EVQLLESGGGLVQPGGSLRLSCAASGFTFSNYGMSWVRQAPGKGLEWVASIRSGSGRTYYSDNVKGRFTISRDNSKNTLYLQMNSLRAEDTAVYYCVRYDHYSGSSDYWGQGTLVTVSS VL: DVVMTQSPLSLPVTLGEPASISCKSSQSLLDYDGKTYLNWLLQKPGQSPQRLIYRVTNRDTGVPDRFSGSGSGTDFTLKISRVEAEDVGVYYCWQGTHFPRSFGQGTKVEIKR , EC50 observed: 0.0367

Just for reference, patent US20260226143A1 is where these values come from.
